# Measured Target: T1, BoNT/F 202F (Clostridium botulinum, UniProt P30996 1-1274)
# T1 sequence: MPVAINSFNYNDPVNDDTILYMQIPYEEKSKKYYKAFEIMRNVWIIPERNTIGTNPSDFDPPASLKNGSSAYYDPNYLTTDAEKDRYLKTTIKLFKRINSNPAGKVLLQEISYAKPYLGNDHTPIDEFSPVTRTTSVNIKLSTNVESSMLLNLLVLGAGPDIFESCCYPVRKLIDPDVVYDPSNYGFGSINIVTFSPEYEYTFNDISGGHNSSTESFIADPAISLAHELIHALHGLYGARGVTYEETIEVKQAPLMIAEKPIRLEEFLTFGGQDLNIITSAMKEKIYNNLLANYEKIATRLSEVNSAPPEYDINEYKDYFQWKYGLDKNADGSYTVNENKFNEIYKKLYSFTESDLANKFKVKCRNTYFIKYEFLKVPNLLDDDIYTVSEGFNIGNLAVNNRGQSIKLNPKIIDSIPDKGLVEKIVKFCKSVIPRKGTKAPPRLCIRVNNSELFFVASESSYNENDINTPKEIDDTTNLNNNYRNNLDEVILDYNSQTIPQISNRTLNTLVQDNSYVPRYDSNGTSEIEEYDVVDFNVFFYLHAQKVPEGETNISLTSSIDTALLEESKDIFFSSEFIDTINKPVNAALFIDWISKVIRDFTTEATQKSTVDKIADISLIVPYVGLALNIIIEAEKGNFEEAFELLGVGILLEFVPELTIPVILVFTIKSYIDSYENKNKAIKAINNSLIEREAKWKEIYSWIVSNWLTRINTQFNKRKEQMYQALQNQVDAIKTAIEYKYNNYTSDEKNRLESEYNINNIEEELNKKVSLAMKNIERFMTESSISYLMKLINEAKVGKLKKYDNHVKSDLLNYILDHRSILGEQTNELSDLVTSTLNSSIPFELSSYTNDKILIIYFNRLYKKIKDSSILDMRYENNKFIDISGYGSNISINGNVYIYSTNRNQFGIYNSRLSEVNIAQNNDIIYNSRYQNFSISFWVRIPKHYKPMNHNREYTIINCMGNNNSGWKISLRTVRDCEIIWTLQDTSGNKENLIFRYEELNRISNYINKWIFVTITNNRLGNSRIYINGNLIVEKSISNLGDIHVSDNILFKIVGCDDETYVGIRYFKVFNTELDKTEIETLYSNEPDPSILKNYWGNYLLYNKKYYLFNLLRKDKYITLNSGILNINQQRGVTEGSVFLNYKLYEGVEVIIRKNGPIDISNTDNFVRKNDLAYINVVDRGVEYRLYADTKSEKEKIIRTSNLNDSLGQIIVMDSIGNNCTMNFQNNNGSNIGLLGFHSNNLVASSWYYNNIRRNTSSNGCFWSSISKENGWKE
# Assay Overview: yeast scFv FACS
Measured Endpoint: binding result

Binder | Measured Endpoint | Recorded Measurement
39D5.1 scFv (scFv, V domains shown) VH: EVQLVQSGGNLVQPGGSLRLSCAATGPIGSHWMTWVRQAPGQGLEWVASINLDGTEKFYVDSVKGRFTVSRDNRKSSVFLQMNNLRVDDTAVYYCARLQWGGYNGWLSPWGQGTLVTVSS VL: DIVMTQSPPSLSASVGDRVSLTCRASEYIGTSLNWYQQKPGKAPKLLIYAASALHSGVPSRFSGSGSGTDFTLTISGLQPEDFATYYCQQANDLPLTFGGGTKLEIK | binding result | binds
39H6 scFv (scFv, V domains shown) VH: EVQLVPSGGNLVQPGGSLRLSCAATGPIGSHWMTWVRQAPGQGLEWVANINLDGTEKFYVDSVKGRFTVSRDNRKSSVFLQMNNLRVDDTAVYYCARLQWGGYNGWLSPWGQGTLVTVSS VL: DIVMTQSPPSLSASVGDRVSLTCRASEYIGTSLNWYQQKPGKAPKLLIYAASALHSGVPSRFSGSGSGTDFTLTISGLQPEDFATYYCQQANDLPLTFGGGTKLEIK | binding result | binds

Where do these numbers come from? They come from patent US20220089784A1.
